Assay info: melting temperature; fluorescence melt of hairpins on a sequencing array, two-state fit, raised by 9.35 °C to match UV melts
Assay conditions: sodium 0.088 M
Parameter: Tm. Scope: all listed entries.
Entry rule: numbers only, all in °C.

The examples below pair each entry with its known result.
Sequence text	Measured endpoint	Unit info	Measurement
GGTTAGGGAAACTTGACC (((.(.(....).).)))	Tm	°C	28
GCACCGCGAAAGCGCAGC ((..(((....)))..))	Tm	°C	38.4
GATCAATCAATTGATC ((((((....))))))	Tm	°C	45
GGGTGCGAAAGCATTCCC ((((((....)))..)))	Tm	°C	46.9
GGGCCGGGAAACCGACCC (((.(((....))).)))	Tm	°C	57.5
GATCGGTATCCCGATC ((((((....))))))	Tm	°C	57.3
GTGAATGGAAACATTTGC (..((((....))))..)	Tm	°C	31.4
GATACTGGAAACAGTGTC ((.((((....)))).))	Tm	°C	44.7
GTATGTGGAAACATATAC ((((.((....)).))))	Tm	°C	37.2
GCCACTGGAAACAATGGC ((((.((....)).))))	Tm	°C	42.2

Given the sequence GGAAGCGAAAGCTTCTCC ((((((....)))..))) , what is its reported Tm?
53.3

Would you mind telling me what Tm value was observed for GGACACGAAAGTGCGTCC ((((((....)))..))) ?
40.5

Please give the measured Tm for this sequence: GCTGATGGAAACATCAAC (.(((((....))))).)
36

Query: Tm; subject: GTGATCGAAAGATAACAC ((((((....)))..)))
34.5

What value of Tm has been reported for the following sequence? GCTTTGCGAAAGCCAAGC ((((.((....)).))))
52.6

Would you kindly share the measured Tm for GTCGACGAAAGTCTGAC ((((((....))).))) ?
49.5

Consider the sequence GCGGCCGAAAGGCCACGC ((((((....)))..))) and give its measured Tm.
65.1

Look up Tm for this sequence: GAGGTAGGAAACTACTTC ((.((((....)))).))
32.5

Look up Tm for this sequence: GCTAACCGAAAGGTAGC (((.(((....))))))
55.3

Can you look up the measured Tm of GGCGGCGAAAGCCCGGCC ((((((....)))..))) for me?
61.5

Can you look up the measured Tm of CGTTTCGGAAACGACACG (((.(((....))).))) for me?
44.8

Look up Tm: GATCGAATGTTCGATC ((((((....))))))
52.5

Quick check: Tm of GCATGTCGAAAGACTTGC (((.(((....))).))) ?
54.6

Please report the recorded Tm for GAGGTGGAAACACCTC ((((((....)))))) .
63.4

Please report the recorded Tm for GTGATTGGAAACAATCAC (((((((....))))))) .
58.3

Cited source: the array DNA melting data of Ke et al. (doi:10.1101/2024.01.08.574731)
